Biological target: T1, PUF4 RNA-binding domain (Saccharomyces cerevisiae, UniProt P25339 537-888)
T1 sequence: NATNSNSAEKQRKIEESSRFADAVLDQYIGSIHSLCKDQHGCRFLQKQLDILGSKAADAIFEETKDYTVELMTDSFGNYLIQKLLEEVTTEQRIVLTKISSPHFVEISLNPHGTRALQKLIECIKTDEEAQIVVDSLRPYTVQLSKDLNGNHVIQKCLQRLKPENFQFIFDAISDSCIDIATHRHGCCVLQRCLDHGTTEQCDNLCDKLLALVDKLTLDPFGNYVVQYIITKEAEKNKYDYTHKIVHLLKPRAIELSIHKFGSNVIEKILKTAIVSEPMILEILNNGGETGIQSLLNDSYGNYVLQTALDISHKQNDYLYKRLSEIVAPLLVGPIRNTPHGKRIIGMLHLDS
Assay: Mg; RNA-MaP; 20 mM Na-HEPES pH 7.4, 30 mM KOAc, 0.75 mM MgCl2, 0.1% Tween-20, 5% glycerol, 0.1 mg/mL BSA, 2 mM DTT; 25 C; 0.0125-409.6 nM protein
Settings: tags: N-His6-TEV cleaved; C-SNAP kept, Cy3B-labelled; label: tethered on chip by stalled RNA polymerase
PROPERTY_LABEL: pKd
pKd here is simply -log10 of the concentration when that concentration is written in mol/L.

The cases that follow already have their pKd on record.
BINDER	READOUT_NUMBER
Id_ii_S2_P3E.3_K3.2_C3.2_[C-2T]_[T-1A]_H3.2_A3.1_F3.1_T3.2_[A10G] (ssRNA) RNA: UUUGAUUAAUAUGAUAUCGUUCUUUCUUAUAUAUAUAUGUUCUUUCUCGAUAUCAUAUUAAUCUUU	6.26
Ib_S2_P5E.1_K5.1_C5.1_H5.1_[T3C]_[A4C]_A5.1_F5.1_T5.1 (ssRNA) RNA: UUUGAUUAAUAUGAUAUCGUUCUUUCUUGCCUUAUUAUUCUUUCUCGAUAUCAUAUUAAUCUUU	5.81

Per the record, Id_ii_S2_P3E.4_K3.3_C3.2_[C-2T]_H3.3_A3.1_F3.1_T3.2_[T9G]_[A10C] (ssRNA) RNA: UUUGAUUAAUAUGAUAUCGUUCUUUCUUUACACUAUAGCUUCUUUCUCGAUAUCAUAUUAAUCUUU has pKd of 6.05

Values from paper PMC9352680
